# Study target: Skp2 (Homo sapiens, UniProt Q13309)
# Sequence (Q13309 whole entry, species assumed): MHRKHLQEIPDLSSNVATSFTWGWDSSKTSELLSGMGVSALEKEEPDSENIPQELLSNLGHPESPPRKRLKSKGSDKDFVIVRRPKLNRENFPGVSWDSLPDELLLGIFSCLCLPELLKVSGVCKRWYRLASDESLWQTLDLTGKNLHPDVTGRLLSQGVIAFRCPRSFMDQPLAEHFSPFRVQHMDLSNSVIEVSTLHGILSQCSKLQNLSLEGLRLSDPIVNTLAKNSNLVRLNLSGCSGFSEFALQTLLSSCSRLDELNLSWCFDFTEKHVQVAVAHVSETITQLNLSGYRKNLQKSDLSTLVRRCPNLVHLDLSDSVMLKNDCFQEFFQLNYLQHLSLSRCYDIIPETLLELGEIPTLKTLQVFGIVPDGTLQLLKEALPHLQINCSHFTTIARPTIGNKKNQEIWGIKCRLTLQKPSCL
# Sequence (P63208 whole entry partner, species assumed): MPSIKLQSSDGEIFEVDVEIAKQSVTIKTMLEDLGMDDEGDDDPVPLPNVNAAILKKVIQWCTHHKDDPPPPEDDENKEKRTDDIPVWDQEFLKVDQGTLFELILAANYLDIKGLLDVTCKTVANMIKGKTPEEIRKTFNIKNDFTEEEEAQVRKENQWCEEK
# Sequence (Q13616 whole entry partner, species assumed): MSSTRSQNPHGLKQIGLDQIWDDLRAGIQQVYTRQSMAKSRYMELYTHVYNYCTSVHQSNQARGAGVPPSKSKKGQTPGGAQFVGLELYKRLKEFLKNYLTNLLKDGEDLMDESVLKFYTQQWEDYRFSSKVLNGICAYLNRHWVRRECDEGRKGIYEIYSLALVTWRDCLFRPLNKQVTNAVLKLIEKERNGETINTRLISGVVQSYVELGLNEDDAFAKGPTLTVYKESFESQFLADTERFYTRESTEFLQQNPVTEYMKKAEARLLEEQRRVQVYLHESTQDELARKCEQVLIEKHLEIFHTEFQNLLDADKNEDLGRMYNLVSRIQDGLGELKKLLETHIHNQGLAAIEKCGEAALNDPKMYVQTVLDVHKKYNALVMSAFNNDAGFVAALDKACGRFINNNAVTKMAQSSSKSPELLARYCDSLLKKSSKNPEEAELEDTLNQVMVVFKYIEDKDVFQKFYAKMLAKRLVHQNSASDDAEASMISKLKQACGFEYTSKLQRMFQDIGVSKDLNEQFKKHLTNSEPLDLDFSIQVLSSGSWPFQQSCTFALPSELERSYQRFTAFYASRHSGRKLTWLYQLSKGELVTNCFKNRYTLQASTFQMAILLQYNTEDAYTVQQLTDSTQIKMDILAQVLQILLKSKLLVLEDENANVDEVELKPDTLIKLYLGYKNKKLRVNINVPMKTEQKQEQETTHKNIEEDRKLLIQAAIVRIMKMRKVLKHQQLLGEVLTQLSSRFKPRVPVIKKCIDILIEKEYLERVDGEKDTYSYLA
# Sequence (P62877 whole entry partner, species assumed): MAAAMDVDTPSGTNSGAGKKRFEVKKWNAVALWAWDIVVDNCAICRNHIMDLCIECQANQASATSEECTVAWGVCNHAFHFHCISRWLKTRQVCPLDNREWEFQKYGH
# Measurement notes: Selectivity assay vs other E3s: Skp2
# Format: biochemical
# Settings: 100 μM, value in brackets; read-out: % Inhibition Skp2 @ (100 μM)
# Experimental: βTrCP Ubiquitination Assay and Selectivity Assays Master mixes were prepared in a 50 mM Herpes buffer at pH 7.5, in 75 mM NaCl and 1 mM DTT without Mg or ATP and peptides were added to a final concentration of 100 μM. Reactions were incubated at room temperature for 30 minutes and then Mg/ATP was added to the mix. Reactions were further incubated for an additional 60 minutes and then stopped by adding SDS gel loading buffer and boiled for 5 minutes. […]
Starred links: 1 amine or outer side, 2 acyl side, 3 side chain; linkers in the order of their positions; H or OH if unused. Non-standard residues stand in square brackets, D forms with d. Residues, ends and D or L forms follow the SMILES beside them. *: point of attachment. Phe(4-NO2) = N[C@@H](Cc1ccc([N+](=O)[O-])cc1)C(=O)O; Benzenesulfonyl(4-OMe) = COc1ccc(S(=O)(=O)*)cc1; 2Naphthylsulfonyl = O=S(=O)(c1ccc2ccccc2c1)*; Phe(3-F) = N[C@@H](Cc1cccc(F)c1)C(=O)O; Maleoyl = O=C(/C=C\C(=O)[*:2])[*:1]; Suc = O=C(CCC(=O)[*:2])[*:1]; Moc = COC(=O)*
Field: inhibition at 100 µM. Provide a value for each of the compounds that follow.
Units required after the number.

Previously resolved entries follow.
[
  {
    "Compound": "NC(=O)[C@H](CCC(=O)O)NC(=O)[C@H](Cc1ccc([N+](=O)[O-])cc1)NC(=O)[C@H](Cc1cccc(F)c1)NC(=O)CNC(=O)[C@H](CCC(=O)O)NC(=O)/C=C\\C(=O)O [UBP008, Mal-EGF(3F)F(4NO2)E-NH2] (Maleoyl-EG[Phe(3-F)][Phe(4-NO2)]E-NH2)",
    "inhibition at 100 µM": "14%"
  },
  {
    "Compound": "COc1ccc(S(=O)(=O)N[C@@H](CC(=O)O)C(=O)N[C@@H](CCC(=O)O)C(=O)NCC(=O)N[C@@H](Cc2cccc(F)c2)C(=O)N[C@@H](Cc2c[nH]c3ccccc23)C(=O)N[C@@H](CCC(=O)O)C(N)=O)cc1 [4-(MeO)-PhSO2-DEGF(3F)WE-NH2] ({Benzenesulfonyl(4-OMe)}-DEG[Phe(3-F)]WE-NH2)",
    "inhibition at 100 µM": "3%"
  },
  {
    "Compound": "NC(=O)[C@H](CCC(=O)O)NC(=O)[C@H](Cc1c[nH]cn1)NC(=O)[C@H](Cc1cccc(F)c1)NC(=O)CNC(=O)[C@H](CCC(=O)O)NC(=O)CCC(=O)O [UBP015, Suc-EGF(3F)HE-NH2] (Suc-EG[Phe(3-F)]HE-NH2)",
    "inhibition at 100 µM": "18%"
  }
]

Take each entry in turn and give its inhibition at 100 µM.
1. NC(=O)[C@H](CCC(=O)O)NC(=O)[C@H](Cc1c[nH]c2ccccc12)NC(=O)[C@H](Cc1cccc(F)c1)NC(=O)CNC(=O)[C@H](CCC(=O)O)NC(=O)CCC(=O)O [UBP014, Suc-EGF(3F)WE-NH2] (Suc-EG[Phe(3-F)]WE-NH2)
2. COC(=O)N[C@H](CC(=O)O)C(=O)N[C@@H](CCC(=O)O)C(=O)NCC(=O)N[C@@H](Cc1cccc(F)c1)C(=O)N[C@@H](Cc1c[nH]c2ccccc12)C(=O)N[C@@H](CCC(=O)O)C(N)=O [UBP020, MeO(CO)-dEGF(3F)WE-NH2] (Moc-[dD]EG[Phe(3-F)]WE-NH2)
3. NC(=O)[C@H](CCC(=O)O)NC(=O)[C@H](Cc1c[nH]c2ccccc12)NC(=O)[C@H](Cc1cccc(F)c1)NC(=O)CNC(=O)[C@H](CCC(=O)O)NC(=O)[C@@H](CC(=O)O)NS(=O)(=O)c1ccc2ccccc2c1 [UBP031, 2-NaphthylSO2-dEGF(3F)WE-NH2] (2Naphthylsulfonyl-[dD]EG[Phe(3-F)]WE-NH2)
4. CC(=O)N[C@H](CC(=O)O)C(=O)N[C@@H](CCC(=O)O)C(=O)NCC(=O)N[C@@H](Cc1cccc(F)c1)C(=O)N[C@@H](Cc1c[nH]c2ccccc12)C(=O)N[C@@H](CCC(=O)O)C(N)=O [UBP017, Ac-dEGF(3F)WE-NH2] (Ac-[dD]EG[Phe(3-F)]WE-NH2)

1: 6%; 2: 16%; 3: 17%; 4: 27%
